Molecular target: ETS1 (UniProt P14921)
Sequence: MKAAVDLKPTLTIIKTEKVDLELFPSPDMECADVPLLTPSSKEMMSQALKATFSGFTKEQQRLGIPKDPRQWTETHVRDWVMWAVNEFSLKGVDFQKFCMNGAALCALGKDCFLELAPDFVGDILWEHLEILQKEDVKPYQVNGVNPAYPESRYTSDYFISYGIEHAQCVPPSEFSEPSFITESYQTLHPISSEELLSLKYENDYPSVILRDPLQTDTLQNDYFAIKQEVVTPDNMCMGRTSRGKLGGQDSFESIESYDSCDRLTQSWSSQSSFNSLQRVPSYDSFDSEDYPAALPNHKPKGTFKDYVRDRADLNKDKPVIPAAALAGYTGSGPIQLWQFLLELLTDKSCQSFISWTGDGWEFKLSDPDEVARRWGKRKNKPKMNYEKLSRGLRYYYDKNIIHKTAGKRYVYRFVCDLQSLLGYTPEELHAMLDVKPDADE
Experiment: ETS1 binding intensity (PBM fluorescence), ETS1 alone (arbitrary fluorescence units); higher = stronger binding
Conditions: ETS1 concentration 1 nM; RUNX1 concentration 0 nM
Would you mind telling me the reported ETS1 binding intensity of each entry?
Kindly provide the number alone.

Specify the recorded ETS1 binding intensity for CCCAAGCTACGGAAGTTAAACCTCAAACATGAAATC , system: ETS1 (UniProt P14921).
1110

Specify the recorded ETS1 binding intensity for AGCTCCACCGGAAACGGCCTGGCCGCAGCCAATCAG , system: ETS1 (UniProt P14921).
7110

Specify the recorded ETS1 binding intensity for TGTCCGGGCAGGAAGGGGTGCTCTGTGGGCTTGGAG , system: ETS1 (UniProt P14921).
948

Specify the recorded ETS1 binding intensity for GTAAATAAAGAGGAAGTCCCTATGCGGGGGATGGGG , system: ETS1 (UniProt P14921).
1910

Specify the recorded ETS1 binding intensity for GAGGGCTGCTTCCTGCTCTGTGGAGGCCGCAGCGGG , system: ETS1 (UniProt P14921).
555

Specify the recorded ETS1 binding intensity for AACCCACCGGATGGAAGCTGCCACTCAGCCGCAGGA , system: ETS1 (UniProt P14921).
1100

Specify the recorded ETS1 binding intensity for TGAGAAGGCAGGATAAGTGACCACATATTTATGCCA , system: ETS1 (UniProt P14921).
435

Specify the recorded ETS1 binding intensity for TCTAAATCACTTCCTGTTACAGAAACCACAGGCCTG , system: ETS1 (UniProt P14921).
4300

Specify the recorded ETS1 binding intensity for GCCATCCAGGAAGTACAGACTCCCTGACCGCACTGA , system: ETS1 (UniProt P14921).
1030

Specify the recorded ETS1 binding intensity for CCTGCCTGACCGGAAGTGCCCGCAACCCCACCGACC , system: ETS1 (UniProt P14921).
20600

Specify the recorded ETS1 binding intensity for CTGCACTTCCGGTCAGGCGGTCGGGCTGCGGGGCCC , system: ETS1 (UniProt P14921).
5690

Specify the recorded ETS1 binding intensity for CAGTGGCTAAGGATCCGGTGTTGCGGTGATACATGA , system: ETS1 (UniProt P14921).
430
